Values were extracted from PubChem BioAssay (NCI).

# System: OVCAR-8 ovarian
# Assay: NCI-60 one-dose screen, 48 h (100 = growth as untreated, 0 = no growth, -100 = all killed)
# Stated Conditions: 10 µM
About 83,000 compounds went through this panel and 20% of them were active in at least one assay; those are over-represented in the sample as a whole. Calls of active or inactive are those of the source. How the source made its calls: active means growth percent below 10; inactive means the rest.
Experimental Endpoint: growth

# Compound, Experimental System, growth
measured = [
    ("NC1=NC(=O)C(c2ccccc2)(c2ccccc2)S1", "OVCAR-8 ovarian", "107% (inactive)"),
    ("CS(=O)(=O)Nc1ccc(Nc2c3ccccc3nc3cc(N)ccc23)cc1", "OVCAR-8 ovarian", "24.8% (inactive)"),
    ("O=C1/C(=C/c2ccc(Cl)cc2)SC(=Nc2ccc(Cl)cc2)N1Cc1nc2ccccc2[nH]1", "OVCAR-8 ovarian", "66.9% (inactive)"),
    ("Cn1c(C(N)=O)cc2c1-c1nc(Nc3ccccc3)ncc1CCC2", "OVCAR-8 ovarian", "51% (inactive)"),
    ("CCC(=O)N1C/C(=C/c2ccc(Cl)cc2)C(=O)/C(=C/c2ccc(Cl)cc2)C1", "OVCAR-8 ovarian", "1.63% (active)"),
    ("CCOC(=O)N/N=C\\C(C)=N\\NC(=O)OCC", "OVCAR-8 ovarian", "99% (inactive)"),
    ("O=C(O)CC(Cl)C(Cl)CC(=O)O (stereo unspecified)", "OVCAR-8 ovarian", "102% (inactive)"),
    ("CCCCCCCCCCCCCC[n+]1ccc(C(N)=O)cc1", "OVCAR-8 ovarian", "1.18% (active)"),
]

// query growth value for entry COc1ccc(-c2nn(-c3cccc(NC(=O)c4cccc(C(F)(F)F)c4)c3)cc2-c2ccncc2)cc1Cl 33% (inactive)

// query growth value for entry CCCCCCCCCCCC[n+]1ccc(C(N)=O)cc1 16.1% (inactive)

// query growth value for entry C#Cc1ccc(-n2c(/C=C/c3ccc(O)cc3)nc3ncccc3c2=O)cc1 75.2% (inactive)

// query growth value for entry CSc1nc(=O)n(Cc2ccc(F)cc2)c(=O)n1Cc1ccc(C)cc1 97.6% (inactive)

// query growth value for entry N=C1c2nc3n(c2C(=O)c2nc4n(c21)CCCC4)CCCC3 91.5% (inactive)

// query growth value for entry CC1CC(=O)OC(C)C1 (stereo unspecified) 104% (inactive)

// query growth value for entry COc1ccc(-c2cc(/C=C3\C(=O)Nc4ccc(Cl)cc43)[nH]n2)cc1OC 81.4% (inactive)

// query growth value for entry CN(C)C=Nc1cc(Cl)ccc1Cl 114% (inactive)

// query growth value for entry COc1cc(-c2nc(-c3nnc(-c4ccc(F)c(Cl)c4)o3)c3ccccn23)cc(OC)c1OC -28.2% (active)

// query growth value for entry CCN1Cc2c(/C=C/c3ccccc3)nc3ccc(OC)cc3c2N(c2cccc(Cl)c2)C1 89.4% (inactive)

// query growth value for entry CC(=O)N(C)c1ccc(Nc2ccc(Nc3ccc(N(C)C(C)=O)cc3)c3c2C(=O)c2ccccc2C3=O)cc1 71.2% (inactive)

// query growth value for entry COc1cc(-c2cc(C(=O)N3CCN(C(=O)c4ccccc4NCc4ccco4)CC3)nc3cc(-c4ccccc4)nn23)cc(OC)c1OC 39.5% (inactive)

// query growth value for entry O=C1/C(=C\c2ccc(F)cc2)CN(C(=O)c2ccc([N+](=O)[O-])cc2)C/C1=C\c1ccc(F)cc1 19.5% (inactive)

// query growth value for entry C#Cc1ccc(-n2c(/C=C/c3ccc(C(F)(F)F)cc3)nc3ncccc3c2=O)cc1 17.2% (inactive)

// query growth value for entry COc1ccc2c(c1)[n+]([O-])c(C#N)c(NC(=O)c1ccco1)[n+]2[O-] 65.3% (inactive)

// query growth value for entry O=C(Nc1ccc(Cl)cc1)N1NC(c2ccc(Cl)cc2)C=C1c1ccccc1 (stereo unspecified) 97% (inactive)

// query growth value for entry Cc1ccc(C(=O)Nc2cccc(F)c2)cc1NC(=O)C1(c2ncnc3[nH]ccc23)CC1 89.7% (inactive)

// query growth value for entry COc1cc(-c2nnc(-c3c(-c4ccc(F)cc4)nc4ccccn34)o2)cc(OC)c1OC 46.6% (inactive)

// query growth value for entry COc1cc(/C=C/C(=O)c2ccc(Cl)cc2)ccc1OS(=O)(=O)c1ccc(C)cc1 83.8% (inactive)

====

Readings of growth for the listed molecules
# System: RPMI-8226 leukemia
# Assay: NCI-60 one-dose screen, 48 h (100 = growth as untreated, 0 = no growth, -100 = all killed)
# Stated Conditions: 10 µM
About 83,000 compounds went through this panel and 20% of them were active in at least one assay; those are over-represented in the sample as a whole. Activity calls are given as the source filed them. How the source made its calls: active means growth percent below 10; inactive means the rest.

# Molecule, Experimental System, Experimental Endpoint, Result
measured = [
    ("O=C1Nc2ccccc2C1=NC1CCCCC1", "RPMI-8226 leukemia", "growth", "103% (inactive)"),
    ("COc1ccc2nc3ccccc3c(NCCNCC(C)O)c2c1 (stereo unspecified)", "RPMI-8226 leukemia", "growth", "-1.19% (active)"),
    ("Cc1cc(C)c(CCc2cc(C)c(C)cc2C)cc1C", "RPMI-8226 leukemia", "growth", "102% (inactive)"),
    ("CN1CCC2(CC1)NC(=O)c1c(c3ccc(Cl)c(Cl)c3n1C)C2C#N (stereo unspecified)", "RPMI-8226 leukemia", "growth", "80.4% (inactive)"),
    ("COc1cc(NC(=O)c2sc3nc4c(cc3c2N)C(O)CCC4)cc(OC)c1 (stereo unspecified)", "RPMI-8226 leukemia", "growth", "88.2% (inactive)"),
    ("S=C1SCC(c2ccccc2)S1 (stereo unspecified)", "RPMI-8226 leukemia", "growth", "102% (inactive)"),
    ("CC(=O)C1CCC2C3CC(F)C4=CC(=O)CCC4(C)C3C(O)CC12C (stereo unspecified)", "RPMI-8226 leukemia", "growth", "83.4% (inactive)"),
    ("Cc1ccc2oc3nc(C)c(C(=O)NCc4ccccc4)cc3c(=O)c2c1", "RPMI-8226 leukemia", "growth", "86.1% (inactive)"),
]

// query growth value for entry O=C1/C(=C\c2ccc(F)cc2)CN(C(=O)c2ccccc2)C/C1=C\c1ccc(F)cc1 -19.5% (active)

// query growth value for entry O=C(NC(Cc1ccc(O)cc1)C(=O)N=Nc1c(O)[nH]c2ccccc12)c1ccccc1 (stereo unspecified) 112% (inactive)

// query growth value for entry O=C(Nc1ccc(OS(=O)(=O)c2ccccc2)cc1)C12CC3CC(CC(C3)C1)C2 18.8% (inactive)

====

Readings of growth for the listed molecules
# Tested on: HS 578T breast
# Assay: NCI-60 one-dose screen, 48 h (100 = growth as untreated, 0 = no growth, -100 = all killed)
# Stated Conditions: 10 µM
This is part of a sample that, as a whole, favours compounds with a hit. Of some 83,000 tested, about 20% had one in any assay.
Field format: number, assumed %, no unit text.

Below, each entry is followed by its recorded growth result.
# Molecule, Experimental Endpoint, Result Number
measured = [
    ("O=C(Nc1ccc(Cl)cc1)N1NC(c2ccc(Cl)cc2)C=C1c1ccccc1 (stereo unspecified)", "growth", 123),
    ("COc1ccc(/C=C2/CN(CCC#N)C/C(=C\\c3ccc(OC)cc3)C2=O)cc1", "growth", 33.1),
    ("Nc1ncn(C2OC(CO)C(O)C2O)c(=O)n1 (stereo unspecified)", "growth", 3.64),
    ("Cc1[nH]nc2c1C(c1cnn(C)c1)C(C#N)=C(N)O2 (stereo unspecified)", "growth", 104),
    ("Cc1cc(Cc2cc(C)c(O)c(C)c2)cc(C)c1O", "growth", 33.8),
]

Notebook: pull reported growth for HS 578T breast, entry N#Cc1cccc(OCc2nc(N)nc(N)c2-c2ccc(Cl)c(Cl)c2)c1 49.7

Notebook: pull reported growth for HS 578T breast, entry O=C(CC(NC(=O)OCc1ccccc1)C(=O)OCc1ccccc1)OCc1ccccc1 (stereo unspecified) 97.9

Notebook: pull reported growth for HS 578T breast, entry NC(=O)c1ccc(-c2cccc3c(=O)nc(N4CCOCC4)oc23)cc1 97.2

Notebook: pull reported growth for HS 578T breast, entry C[N+](C)(C)c1ncnc2nc[nH]c12 101

Notebook: pull reported growth for HS 578T breast, entry CCCCC/C=C/C(=O)CCc1ccc(O)c(OC)c1 104

Notebook: pull reported growth for HS 578T breast, entry O=S(=O)(NCCCNc1nccc(-c2c(-c3ccc(F)cc3)nc3sccn23)n1)c1ccc2ccccc2c1 71.1

====

# Test system: MCF7 breast
# Assay: NCI-60 one-dose screen, 48 h
# Stated Conditions: 10 µM
About 83,000 compounds went through this panel and 20% of them were active in at least one assay; those are over-represented in the sample as a whole. Active and inactive are the calls of the source. The calls were made as follows: active = growth percent below 10; inactive = the rest.
Reply using exactly one outcome from true for active, false for inactive

# Compound, Answer Label
records = [
    ("COc1cc(-c2nc(Nc3nc4ccccc4s3)[nH]c(=O)c2C#N)cc(OC)c1O", "false"),
    ("COc1cc(/C=N/NC(=O)c2ccccc2Nc2ccnc(C(F)(F)F)c2)ccc1O", "false"),
    ("Cc1cc(C)c(NC(=O)c2sc3nc4c(cc3c2N)C(=O)CCC4)c(C)c1", "false"),
]

Kindly provide the recorded test outcome for the following compound: COc1cc(CNc2ccccc2C(=O)N2CCN(C(=O)c3cc(-c4cc(OC)c(OC)c(OC)c4)n4nc(-c5ccccc5)cc4n3)CC2)cc(OC)c1OC true

Kindly provide the recorded test outcome for the following compound: CNc1ccc(CSc2ccc(C)cc2)cc1 false

Kindly provide the recorded test outcome for the following compound: COc1ccc(-c2nc3ccccn3c2-c2nnc(-c3cc(OC)c(OC)c(OC)c3)o2)cc1 false

Kindly provide the recorded test outcome for the following compound: COc1cc2c(cc1OCCCN1CCN(c3ncnc4ccccc34)CC1)N=CC1CCCN1C2=O (stereo not given) true

Kindly provide the recorded test outcome for the following compound: CN1CCC2(CC1)NC(=O)c1c(c3ccc(Cl)c(Cl)c3n1C)C2C#N (stereo not given) false

Kindly provide the recorded test outcome for the following compound: ClC(Cl)(Cl)c1nc2nccnc2[nH]1 false

Kindly provide the recorded test outcome for the following compound: N#CC1=C(Nc2ccccc2Cl)SC(c2ccccc2O)NC1=O (stereo not given) false

Kindly provide the recorded test outcome for the following compound: CCOC(=O)C1CCc2c(ccc3ccccc23)N1CCC#N (stereo not given) false

Kindly provide the recorded test outcome for the following compound: O=C(CSSCC(=O)c1ccc(Cl)cc1)c1ccc(Cl)cc1 false

Kindly provide the recorded test outcome for the following compound: COc1ccc(Nc2cc(C)nc(NCCCNc3ccnc4cc(Cl)ccc34)n2)cc1 true
